system: HOP-18; experiment: NCI tumour cell line growth inhibition, 48 h
The source made the active and inactive calls. Rule as the data show it: active = GI50 up to about 1.1 µM and inactive = higher.
API: response.call in y for active, n for inactive

COMPOUND	EXPERIMENTAL SYSTEM	GROUP LABEL
CC(=O)O[C@H]1CC[C@@]2(C)[C@H](CC[C@@H]3[C@@H]2CC[C@]2(C)[C@@H](c4ccc(=O)oc4)C[C@H]4O[C@]342)C1	HOP-18	y
O=[N+]([O-])c1ccc(-c2csc(=[N+]3CCCCC3)s2)cc1	HOP-18	n
O=[N+]([O-])c1ccc(NSc2ccccc2)cc1	HOP-18	n
COC(=O)[C@H]1C2CC[C@@H]3C45C[C@@H](c6ccoc6)O[C@@H]4O[C@@H](O2)C31CCC5C (stereo not given in full)	HOP-18	n
CCCCCCCCCCCCCCCCOP(=O)([O-])OCC[N+](C)(C)C	HOP-18	n

Could you kindly confirm the outcome this assay logged for `COc1cccc(-c2cc(O)c3ccccc3n2)c1` ?
n

Could you kindly confirm the outcome this assay logged for `CC(C)c1cccc(C(C)C)c1NC1=CC(=O)C(=O)c2ccccc21` ?
n

Could you kindly confirm the outcome this assay logged for `Cc1nc(N)sc1C(=O)/C=C/c1ccc(/C=C/C(=O)c2sc(NC(=O)CCCCCCCCC(=O)Nc3nc(C)c(C(=O)/C=C/c4ccc(/C=C/C(=O)c5sc(N)nc5C)cc4)s3)nc2C)cc1` ?
n

Could you kindly confirm the outcome this assay logged for `CCOC(=O)C(=O)Nc1c(C(C)C)cccc1C(C)C` ?
n

Could you kindly confirm the outcome this assay logged for `O=C(c1ccccc1)c1cc(Cl)ccc1NCn1nnc2ccccc21` ?
n

Could you kindly confirm the outcome this assay logged for C=CCCCCCCCC(O)C1C[C@H](O)C(CCCCC)O1 (stereo not given in full) ?
n

Could you kindly confirm the outcome this assay logged for `CNC(=O)c1cccc2c(Nc3ccc(NS(C)(=O)=O)cc3OC)c3cccc(C)c3nc12` ?
y

Could you kindly confirm the outcome this assay logged for CC(C)C(NCc1c2ccccc2[n+]([O-])c2ccccc12)C(=O)O (stereo not given) ?
n

Could you kindly confirm the outcome this assay logged for CCOC(=O)C1(c2ccccc2)CCCNCC1 (stereo not given) ?
n

Could you kindly confirm the outcome this assay logged for CCc1c(CNc2ccc(C(=O)NC(CC(=O)O)C(=O)O)cc2)ccc2nc(N)nc(N)c12 (stereo not given) ?
n
